Origin of measurements: PubChem BioAssay (NCI)

- Test system: A498 renal
- assayExplanation: NCI tumour cell line growth inhibition, 48 h; in the data active = GI50 below about 0.43 µM; inactive = the rest
Thanks in advance; please answer with one of these: active, inactive

Look over these answered cases.
COc1cc(C2CC(c3ccc(SC)cc3)=NN2C(C)=O)cc(OC)c1OC (stereo not drawn)	inactive
NCCCNc1nc2ccccc2c2c(=O)c3cccc(F)c3sc12	inactive
CN(C)CCNc1c2c(c(NCCN(C)C)c3c(CN(C)C)c[nH]c13)C(=O)c1ccccc1C2=O	inactive
Cc1ccc(N(CC(=O)Nc2ccc(S(=O)(=O)NC3CCN(C)CC3)cc2)S(=O)(=O)c2ccc(Cl)cc2)cc1	inactive
CCCCN1C=CCN(CCCC)C1	inactive
CCOC(=O)c1cc(C(=O)c2cc(OC)cc(OC)c2)n2nc(C)ccc12	active
COc1cc(C=C2c3ccccc3C(=O)c3ccccc32)ccc1OCCCCOc1cc2c(cc1OC)C(=O)N1CCCC1C=N2 (stereo not drawn)	inactive
O=C(c1ccc(Oc2ccccc2)cc1Cl)c1c[nH]c2ncnc(N[C@@H]3CC[C@@H](CO)OC3)c12	active

q: Hi, do you know how CC(c1ccccc1)N1C(=O)CSC1=S (stereo not drawn) came out in this test?
a: inactive

q: Hi, do you know how O=C(CCCBr)Nc1ccccc1C#C/C=C\C#Cc1ccccc1C(F)(F)F came out in this test?
a: inactive
